- TEST_DESCRIPTION: in vitro
- TEST_CONDITIONS: human, HeLa cervical cancer cells
PROPERTY_NAME: IC50 at 24 h (µM)
The answer is to be given in µM; state only the numeric part.

Please review the entries below; each comes with its answer.
INSERT INTO results (compound, recorded_measurement) VALUES
  ('COc1cc2c(c(OC)c1OC)C(=O)C(Cc1ccc(O)cc1)CO2 (stereo not shown) [Compound 1]', 1),
  ('COc1ccc(CC2COc3cc(OC)c(OC)c(OC)c3C2=O)cc1 (stereo not shown) [Compound 4]', 5.5),
  ('COc1ccc(CC2(O)COc3cc(OC)c(OC)c(OC)c3C2=O)cc1 (stereo not shown) [Compound 3]', 4.5);

The record that follows has no IC50 at 24 h shown yet.
For COc1cc2c(c(OC)c1OC)C(=O)C(O)(Cc1ccc(O)cc1)CO2 (stereo not shown) [Compound 2] the compound record lists IC50 at 24 h as 4

----------
- TARGET_OF_ASSAY: α-amylase
- TEST_DESCRIPTION: α-amylase inhibitor assay (colorimetric kit)
- TEST_CONDITIONS: concentrations 3.9-250 μM, 26 min kinetics
PROPERTY_NAME: pIC50
pIC50 field: float, defined as -log10 of concentration (mol/L).

For O=C(/C=C/c1ccc(O)cc1)NCCc1ccc(O)cc1 the compound record lists pIC50 as 4.40

----------
- TEST_DESCRIPTION: in vitro
- TEST_CONDITIONS: human, HeLa cervical cancer cells (CCL-2)
PROPERTY_NAME: viability at 48 h, 5 µM

For COc1cc2c(c(OC)c1OC)C(=O)C(Cc1ccc(O)cc1)CO2 (stereo not shown) the compound record lists viability at 48 h, 5 µM as < 20%

----------
IC50 at 24 h values by entry
- TEST_DESCRIPTION: in vitro
- TEST_CONDITIONS: human, A431 epidermoid carcinoma cells
The answer is to be given in µM; state only the numeric part.

For COc1cc2c(c(OC)c1OC)C(=O)C(Cc1ccc(O)cc1)CO2 (stereo not shown) the compound record lists IC50 at 24 h as 6

For COc1ccc(CC2(O)COc3cc(OC)c(OC)c(OC)c3C2=O)cc1 (stereo not shown) the compound record lists IC50 at 24 h as 4

For COc1ccc(CC2COc3cc(OC)c(OC)c(OC)c3C2=O)cc1 (stereo not shown) the compound record lists IC50 at 24 h as 6.5
